molecular target: T1, Antibody 178-10_His CA_W152C_L452R_D614G (27081) (SARS-CoV-2, UniProt P0DTC2 14-685); experiment: Carterra SPR
T1 construct: domain: S1; also called CA variant S1; California variant S1
QUANTITY_KIND: Kd (nM)

- BINDER: "7-22 (VHH, not shown: a dimerising Fc or GST) VHH: EVQLVESGGGLVQPGGSLRLSCAASGRTITRYTMGWFRQAPGKEREFVASITSGGSTAYADSVKGRFTISADNSKNTAYLQMNSLKPEDTAVYYCAKQDVGKPFDWGQGTLVTVSS"
  UNITS_TEXT: "nM"
  REPORTED: 698
- BINDER: "7-21 (VHH) VHH: EVQLVESGGGLVQPGGSLRLSCAASGRTISRYTMGWFRQAPGKEREFVASITSGGSTAYADSVKGRFTISADNSKNTAYLQMNSLKPEDTAVYYCAKEDVGKPFDWGQGTLVTVSS"
  UNITS_TEXT: "nM"
  REPORTED: 277
- BINDER: "7-41 (VHH) VHH: EVQLVESGGGLVQPGGSLRLSCAASGRTFSTYVMGWFRQAPGKEREFVASISSRGITHYADSVKGRFTISADNSKNTAYLQMNSLKPEDTAVYYCAKEDVGKPFDWGQGTLVTVSS"
  UNITS_TEXT: "nM"
  REPORTED: 95.5
- BINDER: "7-09 (VHH, also called 7-9) VHH: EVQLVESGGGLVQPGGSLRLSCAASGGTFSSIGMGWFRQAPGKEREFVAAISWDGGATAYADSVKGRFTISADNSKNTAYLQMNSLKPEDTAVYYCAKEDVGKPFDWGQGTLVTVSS"
  UNITS_TEXT: "nM"
  REPORTED: 38.7
- BINDER: "7-30 (VHH, not shown: a dimerising Fc or GST) VHH: EVQLVESGGGLVQPGGSLRLSCAASGRTFSMHAMGWFRQAPGKEREFVASISSQGRTNYADSVKGRFTISADNSKNTAYLQMNSLKPEDTAVYYCAAEVRNGSDYLPIDWGQGTLVTVSS"
  UNITS_TEXT: "nM"
  REPORTED: 55.9
- BINDER: "7-26 (VHH) VHH: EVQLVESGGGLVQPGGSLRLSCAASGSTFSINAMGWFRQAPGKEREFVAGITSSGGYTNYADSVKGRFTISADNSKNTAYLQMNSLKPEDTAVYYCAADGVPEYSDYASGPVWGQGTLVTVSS"
  UNITS_TEXT: "nM"
  REPORTED: 34.8
